Test system: RPMI-8226 leukemia
Experiment: NCI tumour cell line growth inhibition, 48 h
// TGI lookup, one value per entry

| COMPOUND | SCALE UNIT | READOUT RELATION | TGI |
| --- | --- | --- | --- |
| C=CCNC(=S)OCCCCCCCCCC | µM | = | 38.9 |
| OC(C(=Nc1ccccc1)c1ccccc1)c1ccccc1 (stereo unspecified) | µM | = | 71.1 |
| COc1ccc(C(=O)N/N=C/c2ccc(O)cc2O)cc1Nc1ccnc(C(F)(F)F)c1 | µM | = | 30.8 |
| CCCN(CCC)c1c([N+](=O)[O-])cc(C(=O)N(C)C)cc1[N+](=O)[O-] | µM | > | 100 |
| O=C1CC(c2c[nH]c3ccccc23)C(=O)N1c1ccccc1 (stereo unspecified) | µM | > | 100 |
| CCc1nc(N)nc(N)c1-c1ccc(Cl)c(N=NN(C)C)c1 | µM | = | 49 |
| CSc1nc(=O)c(C#N)c(-c2ccccc2)n1C1OC(COC(C)=O)C(OC(C)=O)C(OC(C)=O)C1OC(C)=O (stereo unspecified) | µM | > | 100 |
| c1ccc(-c2nc3ccccc3n3nnnc23)cc1 | µM | > | 100 |
| Cc1csc2n(C)c(=O)c3ccccc3[n+]12 | µM | > | 100 |
| CC(C)=CCC/C(C)=C/CC/C(C)=C/CSc1ccc(Cl)cc1C(=O)O | µM | = | 55.6 |
| O=C1C=C(Nc2nc(C(=O)O)cc(=O)[nH]2)c2ccccc2C1=O | µM | > | 100 |

###

Tested on: M14 melanoma
Assay: NCI tumour cell line growth inhibition, 48 h
Outcome: yes (1) for TGI of at least 30 µM; no (0) for anything lower.

| MOLECULE | GROUP |
| --- | --- |
| CC12CCC(C1)C(C)(C)C2OC(=O)c1ccccc1C(=O)O (centres undefined) | yes (1) |
| O=[N+]([O-])c1cc(Cl)ccc1S(=O)(=O)c1cc(Cl)cc2c1NCCC2 | yes (1) |
| N#Cc1nc(Nc2ccc([N+](=O)[O-])cc2)sc1N | yes (1) |
| O=C(CC(=O)c1ccccc1NC1=Cc2ccccc2C(=O)C1=O)C(=O)NC1=C(Cl)C(=O)c2ccccc2C1=O | no (0) |
| CCC(C)CC(CC)NCCN1CCN(C(CC)CC(C)CC)C1=S (centres undefined) | no (0) |
| Cc1ccc(Nc2ccc(Nc3ccc(C)cc3S(=O)(=O)O)c3c2C(=O)c2ccccc2C3=O)c(S(=O)(=O)O)c1 | yes (1) |
| CC(C)(C)n1cc(-c2ccnc(NCCNS(=O)(=O)c3cccc4ccccc34)c2)c(-c2cccc(F)c2)n1 | yes (1) |
| CCOC(=O)C1=CN(C(=O)c2ccccc2)CCC1Cc1ccccc1 (centres undefined) | yes (1) |
| O=C1C(=O)c2c(nc3ncccn23)-c2ccccc21 | no (0) |
| CN1CCN(c2cc(Nc3cc(C4CC4)[nH]n3)nc(Nc3ccc(CC(=O)NCc4cccc(F)c4)cc3)n2)CC1 | no (0) |
| O=c1c2cccnc2ncn1CCCN1CCOCC1 | yes (1) |
| O=C1NC(=S)NC(=O)C1=Cc1ccc2ccccc2n1 | yes (1) |
| O=C1CCC2CCOc3ccc(O)c1c32 (centres undefined) | yes (1) |
| Oc1ccc(-c2nc3ccc4[nH]ncc4c3c3c2CCCC3)c2cccnc12 | no (0) |
| COC(=O)c1cc2c(cc1Cl)SC(N(N(C)C)S(=O)(=O)c1ccc(Cl)cc1)=NS2(=O)=O | yes (1) |
| COc1ccc(N2C(=O)C3c4[nH]c5ccccc5c4C4CCC(C(C)(C)C)CC4C3C2=O)cc1OC (centres undefined) | yes (1) |
| Cc1ccc(NC(=O)CC(=O)N2N=C(c3ccccc3)C(N=Nc3ccc(S(=O)(=O)CCOS(=O)(=O)O)cc3)C2=O)cc1 (centres undefined) | yes (1) |
| CCCCC#Cc1cccc(=O)o1 | yes (1) |

Data origin, for the record: PubChem BioAssay (NCI)
